- PROTOCOL_SUMMARY: Microsome stability, human liver microsomes
REPORTED_ENDPOINT: half-life (min)
// note: answer is a bare numeric in min

Request: Give half-life for the following compound: C=CC(=O)Nc1ccc2ncnc(Nc3cccc(Br)c3)c2c1 [PD168393, reference compound]
Result: 10

---

- PROTOCOL_SUMMARY: Plasma stability in mice (20 mg/kg IP)
- Format: in vivo
- CONDITION_LABEL: mouse, intraperitoneal, 4 h
Below, each entry is listed with its recorded concentration at 4 h.
Respond with the bare value in nM.

INSERT INTO results (molecule, result_unit, numeric_result) VALUES
  ('CC(=O)CC(=O)Nc1ccc2ncnc(Nc3cccc(Br)c3)c2c1 [Compound 3a]', 'nM', 1100);

Request: Hello, please tell me recorded concentration at 4 h for this one: C=CC(=O)Nc1ccc2ncnc(Nc3cccc(Br)c3)c2c1 [PD168393, reference compound]
Result: 40

Taken from patent US9977024B2.
